// provenance: patent US20120232070A1

# system_under_test: hNurr1_RXRγFL (NURR1/RXRγ heterodimer) (Homo sapiens, UniProt P43354+P48443)
# Sequence (P43354 328-598): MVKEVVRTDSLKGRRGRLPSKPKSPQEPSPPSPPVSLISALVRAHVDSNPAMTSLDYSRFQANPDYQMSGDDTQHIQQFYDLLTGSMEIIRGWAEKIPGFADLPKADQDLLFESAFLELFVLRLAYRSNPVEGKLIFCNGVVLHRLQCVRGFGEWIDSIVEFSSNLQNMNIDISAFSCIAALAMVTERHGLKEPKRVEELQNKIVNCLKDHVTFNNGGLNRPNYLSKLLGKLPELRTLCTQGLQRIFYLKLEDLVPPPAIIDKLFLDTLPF
# Sequence (P48443 whole entry, the tested form may be a part): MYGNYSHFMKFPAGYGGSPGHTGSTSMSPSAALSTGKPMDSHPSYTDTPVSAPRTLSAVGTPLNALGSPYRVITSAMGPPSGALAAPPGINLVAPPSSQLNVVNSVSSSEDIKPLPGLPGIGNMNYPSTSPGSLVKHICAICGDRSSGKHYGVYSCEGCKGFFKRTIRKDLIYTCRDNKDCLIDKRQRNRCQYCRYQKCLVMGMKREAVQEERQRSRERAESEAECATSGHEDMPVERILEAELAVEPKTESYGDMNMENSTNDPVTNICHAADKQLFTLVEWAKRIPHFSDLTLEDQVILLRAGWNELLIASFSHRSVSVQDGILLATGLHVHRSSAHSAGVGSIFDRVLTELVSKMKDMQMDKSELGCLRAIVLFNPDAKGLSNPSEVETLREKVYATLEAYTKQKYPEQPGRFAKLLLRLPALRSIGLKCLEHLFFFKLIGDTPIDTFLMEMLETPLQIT
# test_method_notes: Transactivation assay in Cos-7 cells, NURR-1-Gal4 / RXRγ, luciferase reporter
# Format: cell-based
# test_parameters: COS-7, read-out: hNurr1_RXRγFL Eff (%), efficacy in % relative to the reference XCT0135908 at 2·10^−5 M (=100%)
Catalogue of compounds with associated Emax
I only need the number, in %, no unit after it.

Reference set, count: 4
>>> print(df.to_string())
                            chemical_string  endpoint_label  reading_unit  quantitative_readout
0  COC(=O)c1ccc(Cc2c(F)c3cc(C(F)(F)F)ccc3n2S(=O)(=O)c2cccc(C(C)(C)C)c2)cc1            Emax             %                   101
1  CC(C)(C)c1cccc(S(=O)(=O)n2c(Cc3ccc(-c4nn[nH]n4)cc3)cc3cc(C(F)(F)F)ccc32)c1            Emax             %                    57
2  CN1CCOc2ccc(S(=O)(=O)n3c(Cc4ccc(C(=O)O)c(Cl)c4)cc4cc(C(F)(F)F)ccc43)cc21            Emax             %                    56
3  Cc1c(Cc2ccc(C(=O)O)cc2)n(S(=O)(=O)c2cccc(C(C)(C)C)c2)c2ccc(C(F)(F)F)cc12            Emax             %                    90

Need Emax, item CC(C)(C)c1cccc(S(=O)(=O)n2c(Cc3ccc(C(=O)O)cc3F)cc3cc(C(F)(F)F)ccc32)c1
75

Need Emax, item COc1ccc(S(=O)(=O)n2c(Cc3ccc(C(=O)O)cc3)cc3cc(Cl)ccc32)cn1
28

Need Emax, item CC(C)c1cccc(S(=O)(=O)n2c(Cc3ccc(C(=O)O)cc3)cc3cc(C(F)(F)F)ccc32)c1
62
